- target-entity: HRas^G12V (Homo sapiens (Human), UniProt P01112, G12V)
- Sequence (P01112 1-166 G12V): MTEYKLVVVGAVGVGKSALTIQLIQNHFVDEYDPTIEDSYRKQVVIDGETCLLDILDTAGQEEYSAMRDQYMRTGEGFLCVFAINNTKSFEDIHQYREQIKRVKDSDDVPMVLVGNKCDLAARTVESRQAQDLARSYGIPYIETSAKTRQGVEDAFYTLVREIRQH
- measurement-protocol: 19F DLB (ligand-observed 19F NMR) score
- Type: binding
- Parameters: scale not given here
Friendly reminder: 19F DLB Score below 2 is 1.0, at or above is 0.0.

>>> category("Cn1cc(CC(=O)N2CCC2)c2ccc(F)cc21")
1.0
>>> category("Fc1ccc2c(C3CCNCC3)c[nH]c2c1")
0.0
>>> category("CC(=O)N1CCC[C@H]1C(=O)NCCc1c[nH]c2cc(F)ccc12")
1.0
>>> category("CC(=O)N[C@@H]1CCN(C(=O)Cc2c[nH]c3cc(F)ccc23)C1")
1.0
>>> category("O=C(O)[C@H]1CCCN(C(=O)Cc2c[nH]c3cc(F)ccc23)C1")
1.0
>>> category("O=C(Cc1c[nH]c2cc(F)ccc12)N1CC2(COC2)C1")
0.0
>>> category("CC(=O)N1CC[C@@H](NC(=O)Cc2c[nH]c3cc(F)ccc23)C1")
1.0
>>> category("CC(C)C(=O)C1CN(C(=O)Cc2c[nH]c3cc(F)ccc23)C1")
1.0
>>> category("COC[C@@H]1CN(C(=O)Cc2c[nH]c3cc(F)ccc23)CCO1")
1.0
>>> category("CC1(C)OC(=O)C(C(c2ccccc2F)c2c[nH]c3cc(F)ccc23)C(=O)O1 (stereo not drawn) [Compound 11042]")
1.0
>>> category("CC(=O)Nc1cccc(NC(=O)C(C#N)c2c[nH]c3cc(F)ccc23)c1 (stereo not drawn)")
0.0
>>> category("CC(=O)Nc1cccc(C(=O)N2CCC(c3c[nH]c4cc(F)ccc34)CC2)c1")
0.0
>>> category("CCOC(=O)[C@H]1CN(C(=O)Cc2c[nH]c3cc(F)ccc23)CCO1")
1.0
>>> category("COC1CN(C(=O)Cc2c[nH]c3cc(F)ccc23)C1")
0.0
>>> category("CN(C)CC(=O)Nc1cccc(NC(=O)Cc2c[nH]c3cc(Cl)cc(F)c23)c1")
1.0
>>> category("O=C(Cc1ccc(F)cc1)NCCc1c[nH]c2cc(F)ccc12")
1.0

###

- target-entity: HRas^G12V (Homo sapiens (Human), UniProt P01112, G12V)
- measurement-protocol: 19F DLB (ligand-observed 19F NMR) score
- Assay type: binding
- Design: scale not given here
Friendly reminder: 19F DLB Score below 2 is True, at or above is False.

>>> category("COC[C@H]1CN(C(=O)Cc2c[nH]c3cc(F)ccc23)CCO1")
"True"
>>> category("CCOC(=O)C(C#N)c1c[nH]c2cc(F)ccc12 (centres unmarked)")
"True"
>>> category("O=C(NCCc1c[nH]c2cc(F)ccc12)c1ccc(F)cc1")
"True"
>>> category("O=C1CCN(C(=O)Cc2c[nH]c3cc(F)ccc23)CC1")
"False"
>>> category("CN(C)C[C@H]1CN(C(=O)Cc2c[nH]c3cc(F)ccc23)CCO1")
"False"

###

Collected 19F DLB Score values appear next to each entry.
- target-entity: HRas^G12V (Homo sapiens (Human), UniProt P01112, G12V)
- measurement-protocol: 19F DLB (ligand-observed 19F NMR) score
- Assay type: binding
- Set-up: scale not given here
measurement-name: 19F DLB Score

>>> measured_number("O=C1CCCN(C(=O)Cc2c[nH]c3cc(F)ccc23)C1 [Compound 10109]")
3.45
>>> measured_number("O=C(Cc1c[nH]c2cc(F)ccc12)N1CCCCC1 [Compound 10053]")
5.85
>>> measured_number("CC(O)C1CN(C(=O)Cc2c[nH]c3cc(F)ccc23)C1 (stereo not drawn) [Compound 10131]")
2.17
>>> measured_number("O=C(Cc1c[nH]c2cc(F)ccc12)Nc1cccnc1 [Compound 10058]")
3.07
>>> measured_number("CC(=O)N1CCC(C(=O)N2CCC(c3c[nH]c4cc(F)ccc34)CC2)CC1 [Compound 11029]")
1.93
>>> measured_number("O=C(O)C[C@H]1CN(C(=O)Cc2c[nH]c3cc(F)ccc23)CCO1 [Compound 10178]")
1.11
>>> measured_number("CC(=O)N1CCC[C@@H]1C(=O)NCCc1c[nH]c2cc(F)ccc12 [Compound 10044]")
1.07
>>> measured_number("CCOC(=O)CC1CCN(C(=O)Cc2c[nH]c3cc(F)ccc23)CC1 [Compound 10130]")
2.09
>>> measured_number("O=C(O)[C@@H]1CN(C(=O)Cc2c[nH]c3cc(F)ccc23)CCO1 [Compound 10151]")
1.29
>>> measured_number("O=C(CN1CCCCC1)c1c[nH]c2cc(F)ccc12 [compound 10076]")
3.34
>>> measured_number("O=C(O)C1CCN1C(=O)Cc1c[nH]c2cc(F)ccc12 (stereo not drawn) [Compound 10102]")
1.06
>>> measured_number("COCCOc1cccc(NC(=O)Cc2c[nH]c3cc(F)ccc23)c1 [compound 10094]")
3
>>> measured_number("CCOC(=O)[C@@H]1CCCCN1C(=O)Cc1c[nH]c2cc(F)ccc12 [Compound 10126]")
4.22
>>> measured_number("O=C(O)[C@H]1CCCCN1C(=O)Cc1c[nH]c2cc(F)ccc12 [Compound 10125]")
1.56
>>> measured_number("O=C1C[C@@H](c2c[nH]c3cc(F)ccc23)C(=O)N1 (single isomer, unassigned) [Compound 11040]")
3.49
>>> measured_number("CCOC(=O)[C@H]1COCCN1C(=O)Cc1c[nH]c2cc(F)ccc12 [Compound 10121]")
1.26
>>> measured_number("COCC(=O)Nc1cccc(NC(=O)Cc2c[nH]c3cc(F)ccc23)c1 [Compound 10080]")
2.67

###

- target-entity: HRas^G12V (Homo sapiens (Human), UniProt P01112, G12V)
- measurement-protocol: 19F T2-CPMG NMR score
- Format: binding
Grouping by measured 19F T2-CPMG Score is done with the following cut points: LOW = under 6, MEDIUM = from 6 up to 20, HIGH = 20 and over

>>> category("O=C(Cc1c[nH]c2cc(F)ccc12)Nc1cccnc1")
"HIGH"
>>> category("CN(C)Cc1ccc(NC(=O)C(C#N)c2c[nH]c3cc(F)ccc23)cc1 (stereo not drawn)")
"HIGH"
>>> category("COC(=O)C1CN(C(C)C)CCC1NC(=O)Cc1c[nH]c2cc(F)ccc12 (stereo not drawn)")
"LOW"
>>> category("COCCOc1cccc(NC(=O)Cc2c[nH]c3cc(F)ccc23)c1")
"LOW"
>>> category("CC(C)N1CCN(C(=O)Cc2c[nH]c3cc(F)ccc23)CC1")
"MEDIUM"
>>> category("Cn1cc(CC(=O)N2CCC2)c2ccc(F)cc21")
"LOW"
>>> category("CN1CCN(C(=O)Cc2c[nH]c3cc(F)ccc23)CC1=O")
"MEDIUM"
>>> category("O=C(C1CCNCC1)N1CCC(c2c[nH]c3cc(F)ccc23)CC1")
"HIGH"
>>> category("CC1(C)OC(=O)C(C(c2ccccc2F)c2c[nH]c3cc(F)ccc23)C(=O)O1 (stereo not drawn) [Compound 11042]")
"LOW"
>>> category("O=C(CN1CCC1)c1c[nH]c2cc(F)ccc12")
"HIGH"
>>> category("CN(C)CCOc1cccc(NC(=O)Cc2c[nH]c3cc(F)ccc23)c1")
"HIGH"
>>> category("COC(=O)C1CN(C(=O)Cc2c[nH]c3cc(F)ccc23)C1")
"MEDIUM"
>>> category("CCOC(=O)C(C#N)c1c[nH]c2cc(F)ccc12 (stereo not drawn)")
"LOW"
>>> category("O=C(O)[C@@H]1CN(C(=O)Cc2c[nH]c3cc(F)ccc23)CCO1")
"LOW"
>>> category("COCCOC1CN(C(=O)Cc2c[nH]c3cc(F)ccc23)C1")
"MEDIUM"
>>> category("COCC1(O)CN(C(=O)Cc2c[nH]c3cc(F)ccc23)C1")
"MEDIUM"

###

Collected 19F T2-CPMG Score values appear next to each entry.
- target-entity: KRAS^G12D-GDP (Homo sapiens (Human), UniProt P01116, G12D)
- measurement-protocol: 19F T2-CPMG score, KRAS^G12D-GDP
- Assay type: binding
measurement-name: 19F T2-CPMG Score

>>> measured_number("CC(=O)N1CCN(C(=O)Cc2c[nH]c3cc(F)ccc23)CC1")
7.49
>>> measured_number("CCOC(=O)Cc1c[nH]c2cc(F)ccc12 [Compound 11003, ethyl 2-(6-fluoro-1H-indol-3-yl) acetate]")
14.19
>>> measured_number("CC(C)N1CCC(NC(=O)Cc2c[nH]c3cc(F)ccc23)CC1")
12.20

###

- target-entity: KRAS^G12D-GDP (Homo sapiens (Human), UniProt P01116, G12D)
- measurement-protocol: Overall activity in the various assays, KRAS^G12D-GDP
- Type: binding
measurement-name: Activity ranking on KRAS^G12D-GDP (in words)

>>> result("CN(C)Cc1[nH]c2cc(F)ccc2c1C(CC(=O)O)c1ccccc1F (stereo not shown) [Compound 11066]")
"most active"
>>> result("CC(C)N1CCC(NC(=O)Cc2c[nH]c3cc(F)ccc23)CC1 [Compound 10018]")
"most active"
>>> result("CC(=O)N1CCN(C(=O)Cc2c[nH]c3cc(F)ccc23)CC1 [Compound 10040]")
"most active"
>>> result("O=C(Cc1c[nH]c2cc(F)ccc12)N1CCC(O)CC1 [Compound 10086]")
"most active"
